Target: Human immunodeficiency virus type 1 reverse transcriptase (Human immunodeficiency virus 1)
Experiment: Inhibitory activity against HIV-1 replication in MT-4 cells
Assay type: functional, cell-based
Details: MT4
recorded-metric: ED50

// below: answered molecules
molecule: Cc1cn([C@H]2C=C(F)[C@@H](CO)O2)c(=O)[nH]c1=O
study-target: Human immunodeficiency virus type 1 reverse transcriptase (Human immunodeficiency virus 1)
val: 11 µM

molecule: Cc1cn([C@@H]2O[C@H](CO)C[C@H]2F)c(=O)[nH]c1=O
study-target: Human immunodeficiency virus type 1 reverse transcriptase (Human immunodeficiency virus 1)
val: 53 µM

molecule: [N-]=[N+]=N[C@H]1C[C@H](n2cnc3c(N)ncnc32)O[C@@H]1CO
study-target: Human immunodeficiency virus type 1 reverse transcriptase (Human immunodeficiency virus 1)
val: 5 µM

molecule: Nc1ncnc2c1ncn2[C@H]1CC[C@@H](CO)O1
study-target: Human immunodeficiency virus type 1 reverse transcriptase (Human immunodeficiency virus 1)
val: 6.4 µM

molecule: [N-]=[N+]=N[C@H]1C[C@H](n2cnc3c(O)ncnc32)O[C@@H]1CO
study-target: Human immunodeficiency virus type 1 reverse transcriptase (Human immunodeficiency virus 1)
val: > 8 µM

molecule: Cc1cn([C@H]2C[C@H](N=[N+]=[N-])[C@@H](CO)O2)c(=O)[nH]c1=O [ZIDOVUDINE]
study-target: Human immunodeficiency virus type 1 reverse transcriptase (Human immunodeficiency virus 1)
val: 0.003 µM

molecule: Cc1cn([C@H]2C[C@H](F)[C@@H](CO)O2)c(=O)[nH]c1=O [ALOVUDINE]
study-target: Human immunodeficiency virus type 1 reverse transcriptase (Human immunodeficiency virus 1)
val: 0.001 µM

molecule: OC[C@H]1O[C@@H](n2cnc3c(O)ncnc32)C[C@@H]1F
study-target: Human immunodeficiency virus type 1 reverse transcriptase (Human immunodeficiency virus 1)
val: 484 µM

// batch mode: one ED50 value per listed entry
1. Cc1cn([C@H]2C[C@H](F)[C@@H](CO)O2)c(=O)nc1N
2. Cc1cn([C@@H]2O[C@H](CO)C[C@@H]2F)c(=O)[nH]c1=O
3. O=c1[nH]c(=O)n([C@H]2C[C@H](F)[C@@H](CO)O2)cc1F

Marked response:
1. 1.7 µM
2. > 500 µM
3. > 20 µM

---

Target: Human immunodeficiency virus type 1 reverse transcriptase (Human immunodeficiency virus 1) (UniProt Q72547)
Experiment: Selectivity index is the […] values against inhibition of HIV-1 in MT-4 cells
Type: functional, cell-based
Conditions: MT4
Threshold 200: SI strictly smaller gives yes (1), otherwise no (0).

Examples with answers:
mol: O=c1ccn([C@H]2C[C@H](F)[C@@H](CO)O2)c(=O)[nH]1
class-assignment: no (0)

mol: Nc1ccn([C@@H]2O[C@H](CO)C[C@@H]2F)c(=O)n1
class-assignment: yes (1)

mol: [N-]=[N+]=N[C@H]1C[C@H](n2cnc3c(O)ncnc32)O[C@@H]1CO
class-assignment: yes (1)

Exam item: Record O=c1[nH]c(=O)n([C@H]2C[C@H](F)[C@@H](CO)O2)cc1Br : is its SI strictly below 200?
Marked response: yes (1)

Exam item: What about this molecule? Cc1cn([C@H]2C[C@H](N=[N+]=[N-])[C@@H](CO)O2)c(=O)[nH]c1=O
Marked response: no (0)

---

Kindly state ED50 for each of the entries shown.
Biological target: Human immunodeficiency virus type 1 reverse transcriptase (Human immunodeficiency virus 1) (UniProt Q72547)
Experiment: Inhibitory activity against HIV-1 replication in MT-4 cells
Format: functional, cell-based
Settings: MT4
Give bare numbers, in µM.

mol: O=c1[nH]c(=O)n([C@H]2C[C@H](F)[C@@H](CO)O2)cc1Br
ED50, µM: 0.41
--
mol: Nc1ncnc2c1nc(Br)n2[C@H]1CC[C@@H](CO)O1
ED50, µM: 484
--
mol: COc1ccn([C@H]2C[C@H](F)[C@@H](CO)O2)c(=O)n1
ED50, µM: 46
--
mol: Nc1ccn([C@@H]2O[C@H](CO)C[C@@H]2F)c(=O)n1
ED50, µM: 9.8
--
mol: O=c1[nH]c(=O)n([C@H]2C[C@H](F)[C@@H](CO)O2)cc1I
ED50, µM: 0.16

// batch mode: one ED50 value per listed entry
1. O=c1[nH]c(=O)n([C@H]2C[C@H](F)[C@@H](CO)O2)cc1Cl
2. Nc1ncnc2c1ncn2[C@H]1C[C@H](F)[C@@H](CO)O1
3. O=c1ccn([C@H]2C[C@H](F)[C@@H](CO)O2)c(=O)[nH]1

Marked response:
1. 0.38
2. 50
3. 0.04
